B1: POU domain, class 2, transcription factor 3, residues 186 to 260; numbered along this chain, Q9UKI9 (parent)
chain: SDLEELEKFAKTFKQRRIKLGFTQGDVGLAMGKLYGNDFSQTTISRFEALNLSFKNMCKLKPLLEKWLNDAESSP

- Variants of: B1
- EXPERIMENT_SUMMARY: abundance fitness (aPCA) (normalised: wild type 0, dead -1); higher = more abundant; growth selection in yeast, the domain comes from the species named
- MEASUREMENT_SETUP: Homo sapiens
Each item that follows carries a reported abundance fitness.

Reference set (5 entries):
>>> print(df.to_string())
                           ordered_residues  experimental_endpoint  assay_result
0  SDLEELEKFAKTFKQRRIKLGFTQGDVGLAMGKLYGNDFSQTTISRFEALNLSFKNMCKLKPLLEKWLSDAESSP      abundance fitness         0.006
1  SDLEELEKFAKTFKQRRIKLGFTQGDVGLAMGKLYGNDFSQTTIKRFEALNLSFKNMCKLKPLLEKWLNDAESSP      abundance fitness         0.021
2  SDLEELEKFAKTFKQRRIKLGFTQGDVGLAMGKLYGNDFSQTTISRFEALNLSFKNMCKLKPLLEKWLNDAESGP      abundance fitness        -0.084
3  SDLEELEKFAKTFKQRRIKLGFTQGDVGLAMGKLYGNDFSQTTISRFEALNLSFKNMCKLLPLLEKWLNDAESSP      abundance fitness        -0.198
4  SDLEELEKFAKTFKQRRIKLGFTQGDVGLAMGKLYGNDFSQTTISRFEALNLSFKNMCKLKQLLEKWLNDAESSP      abundance fitness        -0.167

Ask: Please look at this variant and report its abundance fitness: SDLEELEKFAKTFKQRRIKLGFTQGDVGLAMGKLYGNDFSQTTISRFEALNLFFKNMCKLKPLLEKWLNDAESSP
Reply: -0.66

Ask: Please look at this variant and report its abundance fitness: SDLEELEKFAKTFKQRRIKLGFTQGDVGLAMGKLYGNDFSQTTISRFEALNLSHKNMCKLKPLLEKWLNDAESSP
Reply: 0.033

Ask: Please look at this variant and report its abundance fitness: SDLEELEKFAKTFKQRRIKLGFTQGDVGLAMGKLYGNDFSQTTISRFEALNLSFKMMCKLKPLLEKWLNDAESSP
Reply: 0.045

Ask: Please look at this variant and report its abundance fitness: SDLEELEKFAKTFKQRRIKLGFTQGDVGLAMGKLYGNDFSQTTISRFESLNLSFKNMCKLKPLLEKWLNDAESSP
Reply: 0.089

Ask: Please look at this variant and report its abundance fitness: SDLEELEKFAKTFKQRRIKLGFTQGDVGLAMGKLYGNDFSQTTISRFEALNLSFKNMCKDKPLLEKWLNDAESSP
Reply: -0.601

Ask: Please look at this variant and report its abundance fitness: SDLEELEKFAKTFKQRRIKLGFTQGDVGLAMGKLYGNDFSQTTISRFEALNLSFKNMCKLKPLLEKWLNDAEVSP
Reply: -0.038
